Source listed as the nanobody polyreactivity screen of Harvey et al. (2022).

experiment: yeast display, Sf9 membrane polyspecificity reagent, FACS + sequencing; frameworks hold sequencing errors
Recorded endpoint: polyreactivity (PSR sort gate)

>  <Ordered residues>
QVQLVESGGGLVQAGGSLRLSCAASGSIFFFYVMGWYRPAPGKERELVAAITYSGGSTFYADSVKGRFTISRDNAKNTVYLQMNSLKPEDTAVYYCAADYGQWTPLDPYNHWGQGTQVTVSS

>  <Value reported>
low polyreactivity

$$$$
>  <Ordered residues>
QVQLVESGGGLVQAGGSLRLSCAASGFTFKKYAMGWSRQAPGKERELVASITWSGGSTSYADSVKGRFTISRDNAKNSVYLQMNSLKPEDTAVFYCAAATFVYRLGYNRFDYWGQGTQVTVSS

>  <Value reported>
high polyreactivity

$$$$
>  <Ordered residues>
QVQLVESGGGLVQAGGSLRLTCAASGNTFDYYAMGWYRQAPGKERELVAAITRGGSTNYADSVKGRFTISRDNAKNTVYLQMNSLKPEDTAVYYCAAEQRAPRFADYDYWGQGTQVTVSS

>  <Value reported>
low polyreactivity

$$$$
>  <Ordered residues>
QVQLVESGGGLVQAGGSLRLSCAASGRIFSFNAMGWYRQAPGKERELVAGITDSGGSTYYADSVKGRFTISRDNAKNTVYFQMNSLKPEDTAVYYCNAEWPYSRVREYFYAYDYWGQGTQVTVSS

>  <Value reported>
low polyreactivity

$$$$
>  <Ordered residues>
QVQLVESGGGLVQAGGSLRLSCAASGRTFYYYTMGWYRQAPGKERELVAAISVSGGSTYYADSVKGRFTISRDNAKNTVYLQMNSLKPEDTAVYYCAAGDGWGRRYYWGQGTQVTVSS

>  <Value reported>
high polyreactivity

$$$$
